Entries and their pKi
TEST_TARGET: Peroxisome proliferator-activated receptor gamma (Homo sapiens, UniProt P37231)
Sequence (P37231 whole entry): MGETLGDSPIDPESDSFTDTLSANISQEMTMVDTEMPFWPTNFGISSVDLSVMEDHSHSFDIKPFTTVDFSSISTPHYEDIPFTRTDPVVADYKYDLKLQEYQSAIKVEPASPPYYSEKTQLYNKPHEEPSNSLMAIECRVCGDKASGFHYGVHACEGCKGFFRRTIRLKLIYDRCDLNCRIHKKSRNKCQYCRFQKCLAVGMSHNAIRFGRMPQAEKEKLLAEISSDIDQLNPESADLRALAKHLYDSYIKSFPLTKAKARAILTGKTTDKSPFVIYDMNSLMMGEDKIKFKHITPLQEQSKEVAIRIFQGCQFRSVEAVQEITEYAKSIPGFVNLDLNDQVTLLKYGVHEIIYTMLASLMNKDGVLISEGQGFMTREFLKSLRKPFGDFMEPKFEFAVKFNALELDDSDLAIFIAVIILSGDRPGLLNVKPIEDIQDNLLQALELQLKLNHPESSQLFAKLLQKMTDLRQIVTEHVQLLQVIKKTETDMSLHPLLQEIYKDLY
ASSAY_METHOD_TEXT: In vitro binding affinity towards human peroxisome proliferator activated receptor gamma (PPAR gamma)
In textbook form, pKi equals minus log to base ten of the concentration in mol/L.

SAMPLE_SMILES	pKi
CCCc1c(OCCCCOc2ccc(CCC(=O)O)cc2)ccc2c(-c3ccccc3)noc12	8.05
CCCc1c(OCCCCOc2ccc(C(C)(C)CC(=O)O)cc2)ccc2c(-c3ccccc3)noc12	7.28
CCCc1c(OCCCOc2cccc(CCC(=O)O)c2)ccc2c(-c3ccccc3)noc12	6.35
CCCc1c(OCCCCOc2cccc(C(C)(C)C(=O)O)c2)ccc2c(-c3ccccc3)noc12	7.59
CCCc1c(OCCCCOc2ccc(CC(=O)O)cc2)ccc2c(-c3ccccc3)noc12	7.52
CCCc1c(OCCOc2ccc(CCC(=O)O)cc2)ccc2c(-c3ccccc3)noc12	6.52
CCCc1c(OCCCSc2ccc(CC(=O)O)cc2Cl)ccc2c(-c3ccccc3)noc12	7.96
CCCc1c(OCCCOc2ccc(OCC(=O)O)cc2)ccc2c(-c3ccccc3)noc12	7.47

In the following, a different molecule is considered.
Kindly note: Peroxisome proliferator-activated receptor gamma (Homo sapiens, UniProt P37231), `CCCc1c(OCCCCOc2ccc(C(C)(C)C(=O)O)cc2)ccc2c(-c3ccccc3)noc12` , pKi value reported: 7.77

----------
Entries and their log10 EC50
TEST_TARGET: Peroxisome proliferator-activated receptor gamma (Homo sapiens)
ASSAY_METHOD_TEXT: Agonistic activity was determined in COS1 cells transfected with GAL 4-PPAR gamma receptor
In our notation, the value equals log10 of EC50 in nM.

Some solved cases for reference:
SAMPLE_SMILES	log10 EC50
CCCc1c(OCCCCOc2ccc(CC(C)(C)C(=O)O)cc2)ccc2c(-c3ccccc3)noc12	1.30
CCCc1c(OCCCOc2ccc(CC(=O)O)cc2)ccc2c(-c3ccccc3)noc12	2.29
CCCc1c(OCCCOc2ccc(OCC(=O)O)cc2)ccc2c(-c3ccccc3)noc12	1.88

// log10 EC50 value for `CCCc1c(OCCCCOc2ccc(CC(=O)O)cc2)ccc2c(-c3ccccc3)noc12` : 1.78

Form field log10 EC50, entry `CCCc1c(OCCCCOc2ccc(CCC(=O)O)cc2)ccc2c(-c3ccccc3)noc12` : 2.69

Given item `CCCc1c(OCCCCOc2ccc(C(C)(C)C(=O)O)cc2)ccc2c(-c3ccccc3)noc12` , the value recorded as its log10 EC50 is 1.00

Noted for `CCCc1c(OCCCCOc2cccc(C(=O)O)c2)ccc2c(-c3ccccc3)noc12` : its log10 EC50 reads 2.29
